Reported GI50 values follow for various compounds
System: human SKM-1 acute myeloid leukemia cells
assay.details: SKM-1 antiproliferation cell-based assay (ATPlite)
experimental.parameters: Homo sapiens, SKM-1, 96 h, SKM-1 antiproliferation assay, 4 days, Table C2

C[C@@H]1CN(c2cc(-c3cc(F)cc(-c4ccc(-n5ccn(C)c5=O)c(Cl)c4)c3O)ccn2)C[C@@H](C)O1; 30 to 300 nM
Cn1ccn(-c2ccc(-c3cc(F)cc(-c4ccnc(N5CCC[C@H](CN)C5)c4)c3O)cc2Cl)c1=O; 300 to 3000 nM
Cn1cnn(-c2ccc(-c3cc(F)cc(-c4ccnc(N5CCNCC5)c4)c3O)cc2Cl)c1=O; 30 to 300 nM

Given the compound `CNC(=O)c1cc(-c2ccnc(N3CCNCC3)c2)c(O)c(-c2ccc(NC(C)=O)c(F)c2)c1` , write its reported GI50.
≥ 3000 nM

Consider the compound `Cn1ccn(-c2ccc(-c3cc(F)cc(-c4cc(N5CCNCC5)c5nccnc5c4)c3O)cc2Cl)c1=O` and give its recorded GI50.
0.3 to 30 nM

====

subject.of.test: human BRD4 bromodomain II (Homo sapiens, UniProt O60885)
Construct: human BRD4 bromodomain II [based on Genbank NM_058243, residues 349-460]; host or cells: E. coli
assay.details: Bromodomain binding assay (AlphaScreen), BRD4 BDII
experimental.parameters: AlphaScreen assay, Table C2; read-out: BRD4 BDII IC50
measure: IC50

Cn1ccn(-c2ccc(-c3cc(F)cc(-c4cc(N5CCNCC5)c5nccnc5c4)c3O)cc2Cl)c1=O; 0.01 to 1 nM

Please look at this compound and report its IC50: `[2H]C([2H])([2H])n1ccn(-c2ccc(-c3cc(F)cc(-c4ccnc(N5CC[C@H](NC)C5)c4)c3O)cc2Cl)c1=O`
0.01 to 1 nM

Specify IC50 for Cn1ccn(-c2ccc(-c3cc(F)cc(-c4ccnc(N5CCC(N6CCC(F)CC6)C5)c4)c3O)cc2Cl)c1=O (stereo not shown) and stop.
0.01 to 1 nM

Provide IC50 value for the following compound: `CC(=O)Nc1ccc(-c2cccc(-c3cccc(N4CCC5(CC4)CNC5)c3)c2O)cc1F`
10 to 100 nM

Tell me measured IC50 for `CN1CCN(c2ccc(-c3cc(F)cc(-c4ccnc(N5CCNCC5)c4)c3O)cc2Cl)C1=O` please.
1 to 10 nM

Specify IC50 for `CO[C@H]1COC(=O)N1c1ccc(-c2cc(F)cc(-c3ccnc(N4CCNCC4)c3)c2O)cc1Cl` and stop.
10 to 100 nM

Tell me its IC50 given `CC(C)N1C2CCC1CN(c1cncc(-c3cc(F)cc(-c4ccc(-n5ccn(C)c5=O)c(Cl)c4)c3O)c1)C2` as the entry.
0.01 to 1 nM

====

subject.of.test: human BRD4 bromodomain II (Homo sapiens)
Construct: human BRD4 bromodomain II [based on Genbank NM_058243, residues 349-460]; host or cells: E. coli
assay.details: Bromodomain binding assay (AlphaScreen), BRD4 BDII
experimental.parameters: AlphaScreen assay, Table C2; read-out: BRD4 BDII IC50
pIC50: −log10 of the molar value.
# pIC50 per record follows

Worked examples follow.
Cn1ccn(-c2ccc(-c3cc(F)cc(-c4ccnc(N5CCCN(C(C)(C)C)CC5)c4)c3O)cc2Cl)c1=O [Example 840]; 9.00 to 11.00
CC(=O)Nc1ccc(-c2cc(F)cc(-c3ccc(F)c(N4CCNCC4)c3)c2O)cc1F [Example 237]; 9.00 to 11.00
CC(=O)NCc1ccc(-c2cccc(-c3ccc(N4CCN(C)C4=O)c(Cl)c3)c2O)cc1N1CCNCC1 [Example 320]; 8.00 to 9.00
Cn1ccn(-c2ccc(-c3cc(F)cc(-c4ccnc(N5CCNc6ccccc65)c4)c3O)cc2Cl)c1=O [Example 532]; < 7.00

Entry CO[C@@H]1COC(=O)N1c1ccc(-c2cc(F)cc(-c3ccnc(N4CCNCC4)c3)c2O)cc1Cl [Example 507] needs its pIC50 filled in; supply it.
7.00 to 8.00

Please indicate pIC50 recorded for CCc1cc(-c2cccc(-c3cc(N4CCNCC4)no3)c2O)ccc1NC(C)=O [Example 22, 2,2,2-trifluoroacetate]
< 7.00

For CN1CCN(c2ccc(-c3cc(F)cc(-c4ccnc(N5CCNCC5)c4)c3N)cc2Cl)C1=O [Example 406] , write its pIC50.
7.00 to 8.00

Respond only with pIC50 recorded for Cc1ccc(S(=O)(=O)n2ccc3c(N4CCN[C@H](C)C4)cc(-c4cc(F)cc(-c5ccc(-n6ccn(C)c6=O)c(Cl)c5)c4O)cc32)cc1 [Example 608]
7.00 to 8.00

Give reported pIC50 value for CC(=O)Nc1ccc(-c2cccc(-c3cnn(C4CCNCC4)c3)c2O)cc1 [Example 15]
< 7.00

Look up and report measured pIC50 for this entry: CC(=O)Nc1ccc(-c2cccc(-c3ccnc(N4CCN[C@H](C)C4)c3)c2O)cc1F [Example 255]
8.00 to 9.00

Look up and report measured pIC50 for this entry: O=C1CCCN1c1ccc(-c2cccc(-c3ccccc3)c2O)cc1F [Example 188]
< 7.00

Return pIC50 for the following compound: Cn1ccn(-c2ccc(-c3cc(F)cc(-c4cccc(C5(N)CC5)c4)c3O)cc2Cl)c1=O [Example 803]
8.00 to 9.00

Read the entry CC(=O)Nc1cc(-c2cc(F)cc(-c3ccc(-n4ccn(C)c4=O)c(Cl)c3)c2O)cc(N2CCNCC2)n1 [Example 442] and write its reported pIC50.
9.00 to 11.00

Indicate the recorded pIC50 value for this compound: CN1CCN(c2ccc(-c3cc(F)cc(-c4cnc(-c5cn[nH]c5)c(N5CCNCC5)c4)c3O)cc2Cl)C1=O [Example 390]
8.00 to 9.00

Given Cc1cc(-c2cncc(N3CCN[C@H](C)C3)c2)c(O)c(-c2ccc(-n3ccn(C)c3=O)c(Cl)c2)c1 [Example 508] , respond with its pIC50.
8.00 to 9.00
